- Experimental system: Isocitrate lyase (Candida albicans)
- Sequence (Q9P8Q7 whole entry): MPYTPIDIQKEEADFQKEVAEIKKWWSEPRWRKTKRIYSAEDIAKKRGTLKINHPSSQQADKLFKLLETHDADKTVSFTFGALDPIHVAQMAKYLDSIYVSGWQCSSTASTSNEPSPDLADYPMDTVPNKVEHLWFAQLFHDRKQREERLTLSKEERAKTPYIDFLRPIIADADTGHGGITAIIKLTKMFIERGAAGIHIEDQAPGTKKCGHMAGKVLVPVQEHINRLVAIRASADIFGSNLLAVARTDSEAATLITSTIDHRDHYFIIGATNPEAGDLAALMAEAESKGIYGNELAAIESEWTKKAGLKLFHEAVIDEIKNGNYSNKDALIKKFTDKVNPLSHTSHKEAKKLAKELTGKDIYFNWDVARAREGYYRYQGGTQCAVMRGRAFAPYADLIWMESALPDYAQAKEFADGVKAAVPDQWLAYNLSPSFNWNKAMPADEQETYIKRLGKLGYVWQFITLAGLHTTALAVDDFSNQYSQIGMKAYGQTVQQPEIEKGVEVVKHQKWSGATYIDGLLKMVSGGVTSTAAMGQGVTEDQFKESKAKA
- Measurement description: Inhibition of Candida albicans isocitrate lyase
pIC50: −log10 of the molar value.
Quick reference: pIC50 of the listed items.

[
  {
    "Molecule": "Cc1[nH]c2ccccc2c1C(=O)C(=O)Nc1ccccc1",
    "Experimental system": "Isocitrate lyase (Candida albicans)",
    "pIC50": "< 3.44"
  },
  {
    "Molecule": "COc1ccc2[nH]c3c(c2c1)CCNC3c1ccccc1 (configuration not stated)",
    "Experimental system": "Isocitrate lyase (Candida albicans)",
    "pIC50": "< 3.44"
  },
  {
    "Molecule": "O=C(C(=O)c1c[nH]c2ccc(O)cc12)c1c[nH]c2ccc(O)cc12",
    "Experimental system": "Isocitrate lyase (Candida albicans)",
    "pIC50": 4.04
  },
  {
    "Molecule": "COC(=O)c1c[nH]c2ccc(O)cc12",
    "Experimental system": "Isocitrate lyase (Candida albicans)",
    "pIC50": "< 3.28"
  },
  {
    "Molecule": "COc1ccc2[nH]cc(C(=O)C(=O)Nc3ccccc3)c2c1",
    "Experimental system": "Isocitrate lyase (Candida albicans)",
    "pIC50": "< 3.47"
  },
  {
    "Molecule": "COc1ccc2[nH]cc(C(=O)C(=O)O)c2c1",
    "Experimental system": "Isocitrate lyase (Candida albicans)",
    "pIC50": "< 3.34"
  },
  {
    "Molecule": "O=C1NCCc2c1[nH]c1ccc(O)cc21",
    "Experimental system": "Isocitrate lyase (Candida albicans)",
    "pIC50": "< 3.31"
  },
  {
    "Molecule": "O=C(O)C(=O)c1c[nH]c2ccccc12",
    "Experimental system": "Isocitrate lyase (Candida albicans)",
    "pIC50": "< 3.28"
  },
  {
    "Molecule": "O=C(Nc1ccccc1)C(=O)c1c[nH]c2ccccc12",
    "Experimental system": "Isocitrate lyase (Candida albicans)",
    "pIC50": "< 3.42"
  },
  {
    "Molecule": "c1ccc(C2=NCCc3c2[nH]c2ccccc32)cc1",
    "Experimental system": "Isocitrate lyase (Candida albicans)",
    "pIC50": "< 3.39"
  },
  {
    "Molecule": "CCCCCC1NCCc2c1[nH]c1ccccc21 (configuration not stated)",
    "Experimental system": "Isocitrate lyase (Candida albicans)",
    "pIC50": "< 3.38"
  },
  {
    "Molecule": "O=C(O)C1NCCc2c1[nH]c1ccccc21 (configuration not stated)",
    "Experimental system": "Isocitrate lyase (Candida albicans)",
    "pIC50": "< 3.33"
  }
]
